# Residual rate listing for each entry below
testMethodNotes: Stability evaluation of solution formulation (Experimental Example 2)
Format: physicochemical
assayConditions: solution formulation, pH3.0, 4 week
Procedure: For Example 1, Example 2, Example 5, Example 6, Comparative Example 13 and Comparative Example 14, the attrition rate of the test compound and the conversion rate of the test compound to Alvocidib in a solution formulation were calculated by the following method. Example 1, Example 2, Example 5, Example 6, Comparative Example 13 and Comparative Example 14 were each added to buffer solutions adjusted to pH 3.0, 4.0 and 5.0, respectively, at a concentration of 0.1 mg/mL, and left at 5° C. […]
Answer in %, number only, no unit symbol.

> print(dat)
                                   compound  readoutvalue
1  CCCN(C[C@H]1CCCCN1)C(=O)Oc1cc(O)c2c(=O)cc(-c3ccccc3Cl)oc2c1[C@H]1CCN(C)C[C@H]1O [Example 6]          98.8
2  CN1CC[C@H](c2c(OC(=O)N(C)CCN)cc(O)c3c(=O)cc(-c4ccccc4Cl)oc23)[C@H](O)C1 [Comparative Example 13, reference compound]          99.1
3  CCN(C[C@H]1CCCCN1)C(=O)Oc1cc(O)c2c(=O)cc(-c3ccccc3Cl)oc2c1[C@H]1CCN(C)C[C@H]1O [Example 2]          96.5

What measured Residual rate goes with CNCCN(C)C(=O)Oc1cc(O)c2c(=O)cc(-c3ccccc3Cl)oc2c1[C@H]1CCN(C)C[C@H]1O [Comparative Example 14, reference compound] ?
93.6

Can you share its Residual rate? I mean this compound: CCCN(C[C@@H]1CCCCN1)C(=O)Oc1cc(O)c2c(=O)cc(-c3ccccc3Cl)oc2c1[C@H]1CCN(C)C[C@H]1O [Example 5]
98.1

* * *

Catalogue of compounds with associated Production rate of Alvocidib
testMethodNotes: Evaluation of conversion rate to active form in buffer solution (Experimental Example 1)
Format: physicochemical
assayConditions: pH6.0, 1 hr
Give your result in % as a bare value.

compound	propertyMeasured	unitInfo	readoutValue
CC(C)[C@H](N)C(=O)O[C@@H]1CN(C)CC[C@@H]1c1c(O)cc(O)c2c(=O)cc(-c3ccccc3Cl)oc12 [Comparative Example 10, reference compound]	Production rate of Alvocidib	%	7.2

Quick check: Production rate of Alvocidib of CN1CC[C@H](c2c(O)cc(O)c3c(=O)cc(-c4ccccc4Cl)oc23)[C@H](OC(=O)[C@@H](N)CO)C1 [Comparative Example 9, reference compound] ?
26.0

Name the recorded Production rate of Alvocidib for CNC(=O)Oc1cc(O)c2c(=O)cc(-c3ccccc3Cl)oc2c1[C@H]1CCN(C)C[C@H]1O [Comparative Example 2, reference compound] .
98.2

* * *

The compounds listed here are annotated with their Residual rate.
testMethodNotes: Evaluation of conversion rate to active form in buffer solution (Experimental Example 1)
Assay type: physicochemical
assayConditions: pH7.4, 3 hr
Value expressed in %; do not type the unit.

For orientation, consider the following solved cases.
compound	Residual rate, %
CC(C)[C@H](N)C(=O)O[C@@H]1CN(C)CC[C@@H]1c1c(O)cc(O)c2c(=O)cc(-c3ccccc3Cl)oc12 [Comparative Example 10, reference compound]	78.4
CCOC(=O)O[C@@H]1CN(C)CC[C@@H]1c1c(O)cc(O)c2c(=O)cc(-c3ccccc3Cl)oc12 [Comparative Example 3, reference compound]	90.8

Give its Residual rate value. Item: CNC(=O)O[C@@H]1CN(C)CC[C@@H]1c1c(O)cc(O)c2c(=O)cc(-c3ccccc3Cl)oc12 [Comparative Example 5, reference compound]
93.4

# input compound: CN1CC[C@H](c2c(O)cc(O)c3c(=O)cc(-c4ccccc4Cl)oc23)[C@H](OC(=O)CN)C1 [Comparative Example 8, reference compound] ; wanted: its Residual rate
18.5

Query (compound): CNCCN(C)C(=O)Oc1cc(O)c2c(=O)cc(-c3ccccc3Cl)oc2c1[C@H]1CCN(C)C[C@H]1O [Comparative Example 14, reference compound] ; field requested: Residual rate
0.0

Consider the compound shown here: CN1CC[C@H](c2c(OC(=O)N(C)CCN)cc(O)c3c(=O)cc(-c4ccccc4Cl)oc23)[C@H](O)C1 [Comparative Example 13, reference compound] What is its recorded Residual rate?
0.0
